Source listed as ChEMBL document CHEMBL3588758.

- Study Target: Kv11.1 (KCNH2, hERG) (Homo sapiens)
- Method Notes: in vitro
- Condition Parameters: hek293, probe [3H]dofetilide
Reported koff is given for each of the following compounds.
Measured Endpoint: koff (s⁻¹)

- Smiles Code: "Cc1ccc(-c2ccc(C#Cc3cccc(C#Cc4ccc(-c5ccc(C)cc5)cc4)[n+]3C)cc2)cc1"
  Measured Endpoint: "koff"
  Unit Abbrev: "s⁻¹"
  Test Value: 0.00055
- Smiles Code: "CCCCCCCCCCCCc1cccc(CCCCCCCCCCCC)[n+]1C"
  Measured Endpoint: "koff"
  Unit Abbrev: "s⁻¹"
  Test Value: 0.000467
- Smiles Code: "CN(CCOc1ccc(Cl)c(Cl)c1)CCc1ccc(Cl)c(Cl)c1"
  Measured Endpoint: "koff"
  Unit Abbrev: "s⁻¹"
  Test Value: 0.00317
- Smiles Code: "O=C(c1ccccc1)N1CCN(CCc2ccccc2)CC1"
  Measured Endpoint: "koff"
  Unit Abbrev: "s⁻¹"
  Test Value: 0.00767
- Smiles Code: "C[n+]1c(C#Cc2ccc(-c3ccc(O)cc3)cc2)cccc1C#Cc1ccc(-c2ccc(O)cc2)cc1"
  Measured Endpoint: "koff"
  Unit Abbrev: "s⁻¹"
  Test Value: 0.000883
- Smiles Code: "CCCN(CC)CC#Cc1ccc(C)cc1"
  Measured Endpoint: "koff"
  Unit Abbrev: "s⁻¹"
  Test Value: 0.0025
- Smiles Code: "CCCCCCCc1cccc(CCCCCCC)[n+]1C"
  Measured Endpoint: "koff"
  Unit Abbrev: "s⁻¹"
  Test Value: 0.00167
- Smiles Code: "C[n+]1c(CCc2ccc(-c3ccccc3)cc2)cccc1CCc1ccc(-c2ccccc2)cc1"
  Measured Endpoint: "koff"
  Unit Abbrev: "s⁻¹"
  Test Value: 0.00163
- Smiles Code: "CCCCCCCCCc1cccc(CCCCCCCCC)[n+]1C"
  Measured Endpoint: "koff"
  Unit Abbrev: "s⁻¹"
  Test Value: 0.00115
- Smiles Code: "COc1ccc(CCN(C)CCOc2ccccc2)cc1"
  Measured Endpoint: "koff"
  Unit Abbrev: "s⁻¹"
  Test Value: 0.005
- Smiles Code: "CCN(CCOc1ccc([N+](=O)[O-])cc1)CCc1ccc([N+](=O)[O-])cc1"
  Measured Endpoint: "koff"
  Unit Abbrev: "s⁻¹"
  Test Value: 0.00433
- Smiles Code: "CCCCCCCCCCC#Cc1cccc(C#CCCCCCCCCCC)[n+]1C"
  Measured Endpoint: "koff"
  Unit Abbrev: "s⁻¹"
  Test Value: 0.002
- Smiles Code: "CC(=O)N(CCOc1ccc([N+](=O)[O-])cc1)CCc1ccc([N+](=O)[O-])cc1"
  Measured Endpoint: "koff"
  Unit Abbrev: "s⁻¹"
  Test Value: 0.03

---

Reported log10 koff is given for each of the following compounds.
- Study Target: Kv11.1 (KCNH2, hERG) (Homo sapiens, UniProt Q12809)
- Sequence (Q12809 whole entry): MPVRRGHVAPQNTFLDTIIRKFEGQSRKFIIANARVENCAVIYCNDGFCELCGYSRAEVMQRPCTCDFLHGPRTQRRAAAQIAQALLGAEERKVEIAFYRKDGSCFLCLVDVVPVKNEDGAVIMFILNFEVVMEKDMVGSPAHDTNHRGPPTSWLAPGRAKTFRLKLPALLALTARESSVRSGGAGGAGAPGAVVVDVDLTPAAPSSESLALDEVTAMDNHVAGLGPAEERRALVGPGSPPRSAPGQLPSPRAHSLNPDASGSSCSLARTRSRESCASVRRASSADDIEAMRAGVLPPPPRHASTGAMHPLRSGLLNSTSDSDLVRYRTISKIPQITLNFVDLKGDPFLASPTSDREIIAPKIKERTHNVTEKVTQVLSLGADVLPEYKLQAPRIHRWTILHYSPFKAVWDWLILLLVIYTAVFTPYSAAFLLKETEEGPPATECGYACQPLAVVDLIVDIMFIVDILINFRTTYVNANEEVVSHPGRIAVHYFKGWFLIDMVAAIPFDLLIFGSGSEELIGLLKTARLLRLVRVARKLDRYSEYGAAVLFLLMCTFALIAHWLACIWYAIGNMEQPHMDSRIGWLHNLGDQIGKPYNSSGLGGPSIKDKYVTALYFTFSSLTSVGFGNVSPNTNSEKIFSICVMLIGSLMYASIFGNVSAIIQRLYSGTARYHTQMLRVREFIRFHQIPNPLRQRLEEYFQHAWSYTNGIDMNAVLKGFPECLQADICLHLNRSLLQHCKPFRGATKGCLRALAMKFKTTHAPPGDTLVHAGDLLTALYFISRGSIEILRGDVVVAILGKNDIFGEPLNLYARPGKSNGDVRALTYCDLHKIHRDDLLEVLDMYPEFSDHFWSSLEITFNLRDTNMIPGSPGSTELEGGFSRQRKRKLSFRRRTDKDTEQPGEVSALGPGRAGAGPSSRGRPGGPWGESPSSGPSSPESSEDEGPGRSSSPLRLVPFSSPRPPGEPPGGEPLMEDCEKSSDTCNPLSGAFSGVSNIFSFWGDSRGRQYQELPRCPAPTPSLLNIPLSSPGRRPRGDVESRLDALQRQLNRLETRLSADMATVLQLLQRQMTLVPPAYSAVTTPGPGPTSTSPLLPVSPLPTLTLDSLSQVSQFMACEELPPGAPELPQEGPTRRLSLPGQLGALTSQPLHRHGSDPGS
- Method Notes: in vitro
- Condition Parameters: hek293
Measured Endpoint: log10 koff (log10 of the value in s⁻¹)

- Compound: "CN(CCOc1ccc([N+](=O)[O-])cc1)CCc1ccc([N+](=O)[O-])cc1"
  Measured Endpoint: "log10 koff"
  Test Value: -1.86
- Compound: "COc1cccc(-c2ccc(C#Cc3cccc(C#Cc4ccc(-c5cccc(OC)c5)cc4)[n+]3C)cc2)c1"
  Measured Endpoint: "log10 koff"
  Test Value: -3.11
- Compound: "C[N+]1(CCc2ccccc2)CCC(C(=O)c2ccc(Cl)cc2)CC1 (stereo not given)"
  Measured Endpoint: "log10 koff"
  Test Value: -2.23
- Compound: "CCCCCCCCCCc1cccc(CCCCCCCCCC)[n+]1C"
  Measured Endpoint: "log10 koff"
  Test Value: -2.97
- Compound: "O=C(N(CCOc1ccc([N+](=O)[O-])cc1)CCc1ccc([N+](=O)[O-])cc1)C(F)(F)F"
  Measured Endpoint: "log10 koff"
  Test Value: -1.99
- Compound: "C[n+]1c(C#Cc2ccc(-c3ccccc3)cc2)cccc1C#Cc1ccc(-c2ccccc2)cc1"
  Measured Endpoint: "log10 koff"
  Test Value: -3.80
- Compound: "CN(CCCCOc1ccc([N+](=O)[O-])cc1)CCc1ccc([N+](=O)[O-])cc1"
  Measured Endpoint: "log10 koff"
  Test Value: -2.36
- Compound: "CCCCCCCCc1cccc(CCCCCCCC)n1"
  Measured Endpoint: "log10 koff"
  Test Value: -3.06
- Compound: "C[n+]1c(C#Cc2ccc(-c3cccc(Cl)c3)cc2)cccc1C#Cc1ccc(-c2cccc(Cl)c2)cc1"
  Measured Endpoint: "log10 koff"
  Test Value: -3.74
- Compound: "N#CCN(CCOc1ccc([N+](=O)[O-])cc1)CCc1ccc([N+](=O)[O-])cc1"
  Measured Endpoint: "log10 koff"
  Test Value: -2.18

---

Reported pKd is given for each of the following compounds.
- Study Target: Voltage-gated inwardly rectifying potassium channel KCNH2 (Homo sapiens, UniProt Q12809)
pKd: −log10 of the molar value.

- Compound: "CCCCCCCc1cccc(CCCCCCC)[n+]1C"
  pKd: 9.36
- Compound: "CCCCCCCCc1cccc(CCCCCCCC)n1"
  pKd: 3.72
- Compound: "CN(CCOc1ccc(Cl)c(Cl)c1)CCc1ccc(Cl)c(Cl)c1"
  pKd: 5.24
- Compound: "O=[N+]([O-])c1ccc(CCNCCOc2ccc([N+](=O)[O-])cc2)cc1"
  pKd: 7.28
- Compound: "CCCCCCCCCCC#Cc1cccc(C#CCCCCCCCCCC)[n+]1C"
  pKd: 5.37
- Compound: "C[n+]1c(C#Cc2ccc(-c3ccc(Cl)cc3)cc2)cccc1C#Cc1ccc(-c2ccc(Cl)cc2)cc1"
  pKd: 7.00
- Compound: "CN(CCCCOc1ccc([N+](=O)[O-])cc1)CCc1ccc([N+](=O)[O-])cc1"
  pKd: 9.14
- Compound: "CCCCCCC[N+](CC)(CC)CC#Cc1ccc(Cl)cc1"
  pKd: 8.92
- Compound: "CCCCCCCCCCc1cccc(CCCCCCCCCC)[n+]1C"
  pKd: 7.43
- Compound: "COc1ccc(CCN(C)CCOc2ccccc2)cc1"
  pKd: 6.23
- Compound: "CCCCCCCCCc1cccc(CCCCCCCCC)[n+]1C"
  pKd: 8.40
- Compound: "CCCCCCCCCCCCc1cccc(CCCCCCCCCCCC)[n+]1C"
  pKd: 6.82
- Compound: "CCCN(CC)CC#Cc1ccc(C)cc1"
  pKd: 6.20
- Compound: "O=C(N(CCOc1ccc([N+](=O)[O-])cc1)CCc1ccc([N+](=O)[O-])cc1)C(F)(F)F"
  pKd: 6.61
- Compound: "Cc1ccccc1-c1ccc(C#Cc2cccc(C#Cc3ccc(-c4ccccc4C)cc3)[n+]2C)cc1"
  pKd: 6.69
- Compound: "O=C(c1ccc(Cl)cc1)C1CCN(CCc2ccc(Cl)c(Cl)c2)CC1"
  pKd: 7.44
- Compound: "C[n+]1c(CCc2ccc(-c3ccccc3)cc2)cccc1CCc1ccc(-c2ccccc2)cc1"
  pKd: 7.22
- Compound: "C[N+]1(CCc2ccccc2)CCC(C(=O)c2ccc(Cl)cc2)CC1 (centres undefined)"
  pKd: 7.74
- Compound: "CCCCCCc1cccc(CCCCCC)[n+]1C"
  pKd: 7.92
- Compound: "CCN(CCOc1ccc([N+](=O)[O-])cc1)CCc1ccc([N+](=O)[O-])cc1"
  pKd: 8.52
- Compound: "COc1cccc(-c2ccc(C#Cc3cccc(C#Cc4ccc(-c5cccc(OC)c5)cc4)[n+]3C)cc2)c1"
  pKd: 6.90
- Compound: "C[n+]1c(C#Cc2ccc(-c3ccc(O)cc3)cc2)cccc1C#Cc1ccc(-c2ccc(O)cc2)cc1"
  pKd: 6.99
- Compound: "O=C(c1ccccc1)N1CCN(CCc2ccccc2)CC1"
  pKd: 5.74
- Compound: "C[n+]1c(C#Cc2ccc(-c3ccccc3)cc2)cccc1C#Cc1ccc(-c2ccccc2)cc1"
  pKd: 6.88
- Compound: "CN(CCOc1ccc([N+](=O)[O-])cc1)CCc1ccc([N+](=O)[O-])cc1"
  pKd: 7.70
- Compound: "Cc1ccc(-c2ccc(C#Cc3cccc(C#Cc4ccc(-c5ccc(C)cc5)cc4)[n+]3C)cc2)cc1"
  pKd: 6.36
- Compound: "C[n+]1c(C#Cc2ccc(-c3cccc(Cl)c3)cc2)cccc1C#Cc1ccc(-c2cccc(Cl)c2)cc1"
  pKd: 6.87
- Compound: "N#CCN(CCOc1ccc([N+](=O)[O-])cc1)CCc1ccc([N+](=O)[O-])cc1"
  pKd: 7.00
- Compound: "CC(=O)N(CCOc1ccc([N+](=O)[O-])cc1)CCc1ccc([N+](=O)[O-])cc1"
  pKd: 6.88

---

- Study Target: Kv11.1 (KCNH2, hERG) (Homo sapiens)
- Method Notes: in vitro
- Condition Parameters: hek293
kon vs 30000 M⁻¹ s⁻¹: less than gives Fulfilled; not less than gives Not fulfilled.

- Smiles Code: "CN(CCOc1ccc([N+](=O)[O-])cc1)CCc1ccc([N+](=O)[O-])cc1"
  Label: "Not fulfilled"
- Smiles Code: "O=[N+]([O-])c1ccc(CCNCCOc2ccc([N+](=O)[O-])cc2)cc1"
  Label: "Not fulfilled"
- Smiles Code: "CCCCCCCCc1cccc(CCCCCCCC)n1"
  Label: "Fulfilled"
- Smiles Code: "CCCCCCCCCCc1cccc(CCCCCCCCCC)[n+]1C"
  Label: "Fulfilled"
- Smiles Code: "CN(CCCCOc1ccc([N+](=O)[O-])cc1)CCc1ccc([N+](=O)[O-])cc1"
  Label: "Not fulfilled"
- Smiles Code: "O=C(c1ccc(Cl)cc1)C1CCN(CCc2ccc(Cl)c(Cl)c2)CC1"
  Label: "Not fulfilled"
- Smiles Code: "C[n+]1c(C#Cc2ccc(-c3cccc(Cl)c3)cc2)cccc1C#Cc1ccc(-c2cccc(Cl)c2)cc1"
  Label: "Fulfilled"
